# credit: PubChem BioAssay (NCATS)

Field: max response. Provide a value for each of the molecules that follow.
Tested on: HaCat
Test: Cytotoxic Profiling of Annotated Libraries Using Quantitative High-Throughput Screening (AID 1296008); note: % is set by controls: 0 for no effect and ±100 for the full control effect; nearly all actives have a fitted effect of over 60% in size
Conditions: Five cell lines viability, CellTiter-Glo ATP luminescence, 48-72 h; hits give low values
Inconclusive results are not listed.
One number for each entry, in %.

Before answering, review these 4 worked examples.
molecule	max response / %
COc1ccc(O[C@@H]2O[C@H](CO)[C@@H](O)[C@H](O)[C@H]2O)cc1OC	-16.7
O=C(/C=C/C=C/c1ccc2c(c1)OCO2)N1CCCCC1	0.66
COC(=O)C1C(O)CCC2CN3CCc4c([nH]c5ccccc45)C3CC21 (stereo not given)	-7.68
O=C(/C=C/c1ccc(O)c(O)c1)O[C@@H]1[C@@H](O)[C@H](OC2CCCCC2O)O[C@H](CO)[C@H]1O (stereo not given in full)	2.85

Now turn to the next molecule.
Data request, read-out max response, for CC(C)C(O)(CO)CCO[C@@H]1O[C@H](CO[C@H]2OC[C@](O)(CO)[C@H]2O)[C@@H](O)[C@H](O)[C@H]1O (stereo not given in full)
-9.77

----------
Assay: Primary redox qHTS assay for identification of artifact compounds. (AID 1845223);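 note: 0% = DMSO and 100% = reference compound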
Conditions: Amplex Red/HRP redox cycling with DTT, fluorescence; series mostly up to 53.8 µM
Results filed as inconclusive are left out. Calls of active or inactive are those of the source. Calls follow the shape of the dose curve; as a rule, active = well fitted activation curve with a large enough effect; inconclusive = small, poorly fitted or top-dose-only effect; inactive = flat fitted curve, though single readings scatter.
assayEndpoint: redox activity (% of DA3003)

Solved cases (4 shown):
molecule	assayEndpoint	assayValue
C=C1C(O)C(OC(=O)c2ccccc2)C2C(C)(C(=O)O)CCCC2(C)C1CC/C(C)=C\CO (stereo not given)	redox activity (% of DA3003)	inactive
CC(=O)O[C@@H]1[C@H](O[C@@H]2O[C@H](CO)[C@@H](O)[C@H](O)[C@H]2O)[C@@H](O[C@@H]2O[C@@H](C)[C@H](O)[C@@H](O[C@@H]3O[C@H](CO)[C@@H](O)[C@H](O)[C@H]3O)[C@H]2O)[C@H](OC(=O)[C@]23CCC(C)(C)C[C@H]2C2=CCC4[C@@]5(C)C[C@H](O)[C@H](O[C@@H]6O[C@H](C(=O)O)[C@@H](O)[C@H](O)[C@H]6O)[C@@](C)(C(=O)O)C5CC[C@@]4(C)[C@]2(C)CC3)O[C@@H]1C (stereo not given in full)	redox activity (% of DA3003)	-2.45% [at 11.5 µM] (inactive)
COc1cc(C2Oc3c(OC)cc(/C=C/C(=O)OC4CC(O)(C(=O)O)CC(O)C4O)cc3C2CO)ccc1O (stereo not given)	redox activity (% of DA3003)	inactive
CC1(C)C[C@H](O)C[C@@]2(C)[C@H]1[C@H](O)C=C1COC(=O)[C@@]12O	redox activity (% of DA3003)	inactive

Here's the next entry for you.
Bench note: what redox activity (% of DA3003) did OC[C@@]1(O)CO[C@H](OC[C@H]2O[C@@H](OC(CCCCc3ccc(O)cc3)CCc3ccc(O)cc3)[C@H](O)[C@@H](O)[C@@H]2O)[C@@H]1O (stereo not given in full) show?
inactive

----------
Test system: Tov112D
Experiment: Primary qHTS to identify gynecologic anti-cancer compounds using libraries of approved drugs and bioactive compounds (AID 1345084); note: % is set by controls: 0 for no effect and ±100 for the full control effect; nearly all actives have a fitted effect of over 55% in size
Settings: Gynecologic cancer cell panel viability, ATPlite luminescence, 48 h; series mostly up to 57.5 µM
Records with an inconclusive call do not appear. The source made the active and inactive calls. The call rests on the fitted dose curve; in most records, active means well fitted cell-killing curve with a large enough effect; inconclusive means small, poorly fitted or top-dose-only effect, or effect the other way; inactive means flat fitted curve, though single readings scatter. *1 amine or outer side, *2 acyl side, *3 side chain or, on linkers, in order; H or OH if unused. Where a SMILES comes first, the peptide text is derived from it. Bridges are numbered along the chain shown (N, C = ends). [ ]: non-standard residue; d: D form. The star is where a group is joined. ξ: configuration not given here. ξhTyr(3S-OH,4S-OH,3'-OSO3H) = NC(C(=O)O)[C@H](O)[C@@H](O)c1ccc(O)c(OS(=O)(=O)O)c1; Orn(4R-OH,5R-OH) = O=C([C@H](C[C@@H](O)[C@@H](O)N[*:3])N[*:1])[*:2]; X2 = CCCCCOc1ccc(-c2cc(-c3ccc(C(=O)*)cc3)no2)cc1; X3 = C[C@H]1CN([*:1])C(C(=O)[*:2])[C@H]1O; ξGln(3R-OH) = NC(=O)C[C@@H](O)C(N)C(=O)O; ξPro(4R-OH) = O=C(O)C1C[C@@H](O)CN1; ξThr(3R) = C[C@@H](O)C(N)C(=O)O
assayEndpoint: activity change, negative = cytotoxicity

// known answers, use as guide
compound	targetDesc	assayEndpoint	assayValue
COc1ccc2[nH]c(S(=O)Cc3ncc(C)c(OC)c3C)nc2c1 (stereo unspecified)	Tov112D	activity change, negative = cytotoxicity	inactive
COc1cc(C2Oc3c(OC)cc(/C=C/C(=O)OC4CC(O)(C(=O)O)CC(O)C4O)cc3C2CO)ccc1O (stereo unspecified)	Tov112D	activity change, negative = cytotoxicity	inactive
C[C@@H]1CCC2C(C)(C)[C@H](O)[C@H](O)C[C@]2(C)[C@@]12Cc1c(O)cc3c(c1O2)CN(CCCC(=O)O)C3=O (stereo partly specified)	Tov112D	activity change, negative = cytotoxicity	inactive
O=C(OCC1=CC(Cl)C(O)C(OC(=O)c2ccccc2)C1O)c1ccccc1 (stereo unspecified)	Tov112D	activity change, negative = cytotoxicity	inactive
O=C(O[C@H]1[C@H](Oc2ccc(O)cc2CO)O[C@H](CO)[C@@H](O)[C@@H]1O)c1ccccc1	Tov112D	activity change, negative = cytotoxicity	inactive
CC1(C)C[C@@H]2[C@H](C1)[C@@]1(C)C[C@]13C(O)OC[C@]3(O)[C@H]2O (stereo partly specified)	Tov112D	activity change, negative = cytotoxicity	inactive
CC/C=C/C=C/C1(C)OC(CC(CO)OC)=CC1=O (stereo unspecified)	Tov112D	activity change, negative = cytotoxicity	inactive
CC(=O)O[C@@H]1C(=O)C(C)=C(CCC(C)CC(=O)O)[C@@]2(C)CCCC(C)(C)C12 (stereo partly specified)	Tov112D	activity change, negative = cytotoxicity	inactive
COC(=O)C1=CO[C@@H](O[C@@H]2O[C@H](CO)[C@@H](O)[C@H](O)[C@H]2O)[C@@H]2C(CO)=CC[C@H]12	Tov112D	activity change, negative = cytotoxicity	inactive
C/C(=C/CO)CC[C@H]1[C@]2(C)C[C@H](O)CC(C)(C)[C@H]2CC[C@]1(C)O	Tov112D	activity change, negative = cytotoxicity	inactive

Record activity change, negative = cytotoxicity for all entries; do not skip any.
1. CC(=O)/C=C/[C@H]1[C@](C)(O)[C@@H](O)[C@H](O)C2C(C)(C)CCC[C@@]21C (stereo partly specified)
2. Cc1c(-c2ccc3c(c2)OCO3)oc2ccc(C(O)C(C)O)cc12 (stereo unspecified)
3. CC1=CC(=O)CC(C)(C)[C@@]1(O)/C=C/C(C)O[C@@H]1O[C@H](CO)[C@@H](O)[C@H](O)[C@H]1O (stereo partly specified)
4. O=C(O)Cn1nnc(-c2ccc(CN(CCCCOc3ccc(CN4CCCC4)cc3)CCc3ccccc3)cc2)n1
5. C=C1CC2C3(C)C=CC(=O)OC(C)(C)C3CC(OC(C)=O)C2(C)C2C(=O)OC(C)C(=O)C12C (stereo unspecified)
6. COc1ccc(C2C(C(=O)O)C(C(=O)O)C2c2ccc(OC)cc2O[C@@H]2O[C@H](CO)[C@@H](O)[C@H](O)[C@H]2O)c(O[C@@H]2O[C@H](CO)[C@@H](O)[C@H](O)[C@H]2O)c1 (stereo partly specified)

inactive
inactive
inactive
inactive
inactive
inactive

State recorded activity change, negative = cytotoxicity for all listed compounds.
1. COc1cc([C@@H](O[C@@H]2O[C@H](CO)[C@@H](O)[C@H](O)[C@H]2O)[C@@H]2CO[C@H](c3ccc(O)c(OC)c3)[C@H]2CO)ccc1O
2. OC[C@H]1O[C@@H](OCc2ccccc2)[C@H](O)[C@@H](O)[C@@H]1O
3. CCCc1[nH]nc2c1C(c1cc(Cl)cc(Cl)c1O)C(C#N)=C(N)O2 (stereo unspecified)
4. O=C(/C=C/c1ccc(O)cc1)OCC1OC(O)C(OC2OC(CO)C(O)C(O)C2O)C(O)C1O (stereo unspecified)
5. CC(CC(C)O[C@@H]1O[C@H](CO)[C@@H](O)[C@H](O)[C@H]1O)OC(=O)/C=C/c1ccc(O)cc1 (stereo partly specified)

["inactive", "inactive", "inactive", "inactive", "inactive"]

Hi team, please reply with activity change, negative = cytotoxicity for each item in this list.
1. CCCCCOc1ccc(-c2cc(-c3ccc(C(=O)N[C@H]4C[C@@H](O)[C@@H](O)NC(=O)C5[C@@H](O)[C@@H](C)CN5C(=O)C([C@H](O)CC(N)=O)NC(=O)C([C@H](O)[C@@H](O)c5ccc(O)c(OS(=O)(=O)O)c5)NC(=O)C5C[C@@H](O)CN5C(=O)C([C@@H](C)O)NC4=O)cc3)no2)cc1 (stereo partly drawn) (X2-[Orn(4R-OH,5R-OH)][ξThr(3R)][ξPro(4R-OH)][ξhTyr(3S-OH,4S-OH,3'-OSO3H)][ξGln(3R-OH)][X3]; lactam 1-C)
2. CC(=O)O[C@@]1(C)[C@@H]2CC(=C(C)C)C(=O)C[C@@]2(C)CC[C@H]1OC(=O)C1(C)OC1C (stereo partly specified)
3. C/C=C(/C)C(=O)O[C@H]1C[C@]2(C)O[C@@H]2[C@@H](OC(C)=O)[C@@]2(C)CC[C@@](O)(C(C)C)[C@H]12
4. CC1(C)CC(NC(=O)C(=O)Nc2ccc(Cl)cc2)CC(C)(C)N1
5. CC1(CO)CCCC2(C)C3COC(=O)C3=CC(O)C12 (stereo unspecified)

inactive
inactive
inactive
inactive
inactive

State the recorded activity change, negative = cytotoxicity for every item in the following list.
1. Cc1ncc([N+](=O)[O-])n1C[C@H](O)CN1CCOCC1
2. CC1C(O)C(O)C2C(C(=O)OCCc3ccc(O)cc3)=COC(O[C@@H]3O[C@H](CO)[C@@H](O)[C@H](O)[C@H]3O)C12 (stereo partly specified)
3. Cc1ccc(C)c(NC(=O)CNS(=O)(=O)c2ccc3[nH]c(=O)oc3c2)c1
4. CC(C)=CCC/C(C)=C/CO[C@@H]1O[C@H](CO[C@@H]2O[C@@H](CO)[C@H](O)[C@H]2O)[C@@H](O)[C@H](O)[C@H]1O

["inactive", "inactive", "inactive", "inactive"]

activity change, negative = cytotoxicity lookup needed for `C/C=C(\C)C(=O)O[C@H]1C=CC(=O)O[C@H]1/C=C/[C@H](O)[C@@H](C)O` , thanks.
inactive
